# target: Pep1/Pep2
# assay-summary: ELISA, coated peptide
recorded-metric: ELISA O.D. (O.D.)
One number for each entry, in O.D..

Please review the following examples before continuing.
antibody 617 (antibody, V domains shown) VH: QVQLQLPGAELVKPGASVKVSCKASAYTFTSYWMHWVKQRPGQGLEWIGRIHPSDSDTNYNQNFKGKATLTVDKSSNTAYMQLSSLTSEDSAVYYCATGFSFWGQGTLVTVSA VL: DIVMTQSHKFMSTSVGDRVSITCKASQDVSTTVAWYQQKPGQSPKLLIYSASYRYTGVPDRFTGSGSGTDFTFTISSVQAEDLAVYYCQQHYSTRPTFGGGTKLEIK    0.102
antibody 623 (antibody, V domains shown) VH: QIQLVQSGPELKKPGETVKISCKASGYTFTTYGMSWVKQAPGKGLKWMGWINTYSGVPTYADDFKGRFAFSLETSASTAYLQINNLKNEDTATFFCAREGSTMVTRYYFDYWGQGTTLTVSS VL: DIVMTQAAPSVPVTPGESVSISCRSSKSLLHSNGNTYLYWFLQRPGQSPQLLIYRMSNLASGVPDRFSGSGSGTAFTLRISRVEAEDVGVYYCMQHLEYPSTFGGGTKLEIK    0.098
antibody 616 (antibody, V domains shown) VH: QIHLVQSGPELKKPGETVRISCKASGYTFTTYGMSWVKQAPGKALKWMGWINTYSGVPTYADDFKGRFAFSLETSASTAYLQINNLKNEDTATYFCTREGSTMVTRYYFDYWGQGTTLTVSS VL: DIVMTQAAPSVPVTPGESVSISCRSSKSLLHSNGNTYLYWFLQRPGQSPQLLIYRMSNLASGVPDRFSGSGSGTAFTLRISRVEAEDVGVYHCMQHLESPYTFGGGTTLEIK    0.069

Okay, next one:
Give me measured ELISA O.D., please, for this binder: antibody 619 (antibody, V domains shown) VH: QIQLVQSGPELKKPGETVKISCKASGYTFTTYGMSWVKQAPGKGLKWMGWINTYSGVPTYADDFKGRFAFSLETSASTAYLQINNLKNEDTATYFCAREGSTMVTRYYFDYWGQGTTLTVSS VL: DIVMTQAAPSVPVTPGESVSISCRSSKSLLHSNGNTYLYWFLQRPGQSPQVLIYRMSNLASGVPDRFSGSGSGTAFTLRISRVEAEDVGVYYCMQHLESPYTFGGGTKLEIK
0.064
